# reported GI50; entries follow
Test system: OVCAR-5 ovarian
Assay: NCI tumour cell line growth inhibition, 48 h

1. c1ccc2[nH]c(-c3ccc(NN=Nc4ccncc4)cc3)nc2c1 ... > 100 µM
2. O=C(Nc1cc(Cl)cc(Cl)c1)c1ccc(NC2=C(Cl)C(=O)N(Cc3ccc(Cl)cc3Cl)C2=O)cc1 ... > 100 µM
3. O=C1C(=O)c2ccccc2C(O)=C1CC=C(Br)Br ... 21.8 µM
4. CCn1c(CN2CCN(Cc3ccccc3)CC2)nc2cc(NC(=O)c3cccs3)ccc21 ... 17 µM
5. COc1cc2cc(Oc3ccc(NC(=O)Nc4cccc(C(F)(F)F)c4)cc3)c(C)nc2cc1OC ... 3.02 µM
6. Cn1c(/C=C(\C#N)c2ccccc2)nc2c(N3CCOCC3)nc(Cl)nc21 ... 1.42 µM
7. O=C(Nc1cccc(Cl)c1)c1ccc(NC2=C(Cl)C(=O)N(Cc3ccccc3)C2=O)cc1 ... 24.8 µM
8. CCc1c(C#N)c(S[C@@H](C(N)=O)c2ccccc2)nc(N(C)C)c1C#N ... > 100 µM

// switching to the query compound
IN: Record "O=c1nc2n(-c3ccc(Cl)cc3)c3ccc([N+](=O)[O-])cc3cc-2c(=O)[nH]1" : what is its GI50 with OVCAR-5 ovarian?
OUT: 28.8 µM

----------
Test system: U251 CNS
Reply using exactly one outcome from T = active, F = inactive

Worked cases, answers included:
1) C=CC(=O)N1CCN(c2nc(=O)n(-c3c(C)ccnc3C(C)C)c3nc(-c4c(O)cccc4F)c(F)cc23)[C@@H](C)C1 ... F
2) O=C1c2cc3c(cc2-c2c1c1ccc(Cl)cc1c(=O)n2CCCNCCO)OCO3 ... T
3) O=C(c1ccco1)c1nc2cc(Cl)ccc2[n+]([O-])c1C(F)(F)F ... F
4) N#Cc1nc2c(S(=O)(=O)c3ccccc3)c(N)n(Cc3cccnc3)c2nc1C#N ... F
5) Nc1c(Br)cc(Br)c2c1[nH]c(=O)c1ccccc12 ... F
6) C/C(=N\Nc1cc(C)c2cc(C)ccc2n1)c1ccccn1 ... T
7) COc1ccccc1CCN=C1NC(=O)/C(=C/c2ccc3ncccc3c2)S1 ... F
8) O=C(/C=C/c1cccnc1)NCCCCC1CCCN(C(=O)c2ccccc2)C1 (centres undefined) ... T

IN: // outcome(item) with item = O=C1CCCCCCCC/C=C\CC(c2ccco2)O1 (centres undefined)
OUT: F

IN: Tell me the assay call for "CC1(C)N=C(N)N=C(N)N1c1ccc(OCCCCOc2ccc(S(=O)(=O)F)cc2)c(Cl)c1" please.
OUT: T

IN: Outcome? "CC(C)[C@H](CO)Nc1nc(Nc2ccc(C(=O)NCCNS(=O)(=O)c3cccc4c(N(C)C)cccc34)c(Cl)c2)c2ncn(C(C)C)c2n1"
OUT: F

----------
Test system: DLD-1 colon
Assay: NCI tumour cell line growth inhibition, 48 h
Each entry below carries its reported TGI.

1) CCN=C(NNc1ccc([N+](=O)[O-])cc1)P(=O)(OC(C)C)OC(C)C ... > 100 µM
2) N/C(=C\c1ccc(OCc2ccccc2)c(OCc2ccccc2)c1[N+](=O)[O-])C(=O)O ... > 100 µM
3) Nc1ncnc2c1nc(Cl)n2C1OC2COP(=O)(O)OC2C1O (stereo not drawn) ... > 194 µM
4) Cc1ccccc1C(=O)c1ccccc1O ... > 100 µM
5) N#CC(C(=O)/C(=N/N)C(C#N)c1ccccc1)c1ccccc1 (stereo not drawn) ... > 100 µM
6) COC(=O)/C([Se]c1c(C)cc(C)cc1C)=C(\[Se]c1c(C)cc(C)cc1C)C(=O)OC ... > 100 µM
7) CCOC(=O)N1CCc2cc(OC)c(OC)c3c2c1cc1cc(OC)c(OC)cc13 ... > 100 µM
8) CCC1(c2c(F)c(F)c(N)c(F)c2F)CCC(=O)NC1=O (stereo not drawn) ... > 100 µM

IN: Name the reported TGI value associated with the compound "COC(=O)N1CCc2c(nc(N(C)CCO)[nH]c2=O)C1"
OUT: > 100 µM

IN: Could you tell me which TGI is on file for COc1cccc(NC(=O)/C(CC(=O)CC(c2ccccc2)c2c(O)c3ccccc3oc2=O)=N\NC(C)(C)C)c1OC (stereo not drawn) ?
OUT: > 100 µM

----------
Test system: SR leukemia
Assay: NCI tumour cell line growth inhibition, 48 h; in the data active means GI50 below about 0.43 µM; inactive means the rest
Write down one outcome, taken from 1 = active, -1 = inactive

IN: Please state the recorded outcome for this compound: "O=C(Nc1cccc(Cl)c1)c1ccc(NC2=C(Cl)C(=O)N(Cc3ccccc3)C2=O)cc1"
OUT: -1

IN: Dear colleague, could you share the recorded outcome for "CCOc1ccc(-c2nonc2NC(=O)c2cccc(C)c2)cc1OCC" when you have a moment?
OUT: -1

IN: Recorded call for "CN(C)c1ccc([O][Bi]([Cl])[Cl])cc1" ?
OUT: -1

IN: Record request — test call for "COc1ccc(/C=C\c2cc(OC)c(OC)c(OC)c2)cc1OC(=O)c1cccc(Cn2cc(CCOC(=O)[C@H](N)Cc3cn(C)c4ccccc34)nn2)c1"
OUT: 1

----------
This section presents compounds with their documented TGI values.
Tested on: A549 NSCLC
Test: NCI tumour cell line growth inhibition, 48 h
# value in µM; strip the unit string

See these solved cases before continuing.
1) COC(=O)c1c2c(c(C)[n+]([O-])c1C)C(=O)C=C(NCc1ccc(F)c(Cl)c1)C2=O ... 1.95
2) C=C1C(=O)O[C@H]2[C@H]1CC/C(Cn1cc(-c3cc(C(F)(F)F)cc(C(F)(F)F)c3)nn1)=C\CC[C@@]1(C)O[C@@H]21 ... 3.01

Field: next compound
IN: Look up TGI for this compound: "NC(N)=N/N=C\c1cccc(OCc2ccccc2)c1"
OUT: 24.1

----------
Tested on: M14 melanoma
Test: NCI tumour cell line growth inhibition, 48 h
TGI listing for selected compounds.

Solved cases below.
1. N/C(=C\c1ccc(OCc2ccccc2)c(OCc2ccccc2)c1[N+](=O)[O-])C(=O)O ... > 100 µM
2. CC(C)(C)c1cc(C(C)(C)C)c(SS(=O)(=O)O)c(O)c1O ... > 100 µM
3. CC(C)=CCNc1ncnc2nc[nH]c12 ... > 100 µM

IN: Request the reported TGI associated with O=C(CC1(O)C(=O)Nc2c(Cl)ccc(Cl)c21)c1ccc2ccccc2c1 (stereo not given)
OUT: 21.3 µM

IN: Name the recorded TGI for "COc1cc(CNc2ccc3nc4n(c(=O)c3c2)CCCCC4)cc(OC)c1OC" .
OUT: > 100 µM

IN: # input compound: "COc1cc(C)c(/C=C/C(=O)N2C(=O)OC[C@@H]2c2ccccc2)c(C)c1" ; wanted: its TGI
OUT: > 100 µM

----------
System: HT29 colon
Assay: NCI tumour cell line growth inhibition, 48 h
Overview of recorded TGI for various molecules

1) CC1(CO)OC(n2cc(C(=O)NC(=O)OCc3ccccc3)c(=O)[nH]c2=O)CC1O (centres undefined) ... > 100 µM
2) C=CCN1C(=O)/C(=C/c2ccc(OC)cc2)NC1=S ... > 100 µM
3) CC1(C)N=C(N)N=C(N)N1c1ccc(OCCCCOc2ccc(S(=O)(=O)F)cc2)c(Cl)c1 ... 13.4 µM
4) Cc1ccc(C)n1-n1c(Cc2ccccc2)n[nH]c1=O ... > 100 µM
5) COc1cc2c3c(n(CCCN)c(=O)c2cc1OC)-c1cc2c(cc1/C3=C\CCN)OCO2 ... 10.6 µM
6) Clc1ccc2c(c1)C1C(CO2)C(c2ccccc2)=NN1c1ccccc1 (centres undefined) ... > 100 µM

IN: Value lookup for TGI; key = "CCCCCCCCCCCCCC(=O)CC(=O)c1c(O)cccc1O"
OUT: > 100 µM

----------
As shown below, each of these molecules has a reported TGI value.
Tested on: MCF7 breast
Assay: NCI tumour cell line growth inhibition, 48 h

As a guide, the following entries are already answered.
1) O=C1/C(=C/c2ccccc2)CN(C(=O)c2cccnc2)C/C1=C\c1ccccc1 ... 1.46 µM
2) COC(=O)Nc1nc2cc(OC)c(OC)cc2c(=O)[nH]1 ... > 100 µM
3) COc1ccc(-n2nnnc2-c2c[nH]c3c(F)cc(F)cc23)cc1 ... > 100 µM
4) COC1CC(OC2C(C)OC(OC3C(C)OC(OC4C(O)CC(O[C@H]5CC[C@@]6(C)C(=CC[C@]7(O)[C@@H]6C[C@@H](OC(=O)/C=C/c6ccccc6)[C@@]6(C)[C@]7(O)CC[C@@]6(O)C(C)=O)C5)OC4C)CC3OC)CC2OC)OC(C)C1O (some centres undefined) ... > 6.25 µM
5) COc1cc(OC)c2c(=O)cc(-c3ccccc3F)[nH]c2c1 ... > 100 µM
6) CN(CCCCN1CCCC1)CCCN(C)C(=O)Cc1ccc(Cl)c(Cl)c1 ... 34.4 µM
7) CC1(C)N=C(N)N=C(N)N1c1ccc(OCCCCOc2ccc(S(=O)(=O)F)cc2)c(Cl)c1 ... 13 µM
8) COc1ccc(C(=O)Cn2c(C(=O)/C=C/c3ccco3)nc3ccccc32)cc1 ... > 100 µM

With those in mind, consider the next molecule.
IN: I have this molecule here, "O=NNc1ccc(S(=O)(=O)c2ccccc2)cn1" , and I need its recorded TGI.
OUT: > 100 µM
